target: kinases (Homo sapiens, UniProt P07949, V804L); construct: purchased Eurofins/DiscoveRx; host or cells: E. coli BL21-derived host (T7 phage display) for most kinases; HEK-293 for the rest; assay: KINOMEscan kinase binding assay (Eurofins/DiscoveRx), % Ctrl; settings: 1 μM; RET(V804L)
Sequence (P07949 29-1114 V804L): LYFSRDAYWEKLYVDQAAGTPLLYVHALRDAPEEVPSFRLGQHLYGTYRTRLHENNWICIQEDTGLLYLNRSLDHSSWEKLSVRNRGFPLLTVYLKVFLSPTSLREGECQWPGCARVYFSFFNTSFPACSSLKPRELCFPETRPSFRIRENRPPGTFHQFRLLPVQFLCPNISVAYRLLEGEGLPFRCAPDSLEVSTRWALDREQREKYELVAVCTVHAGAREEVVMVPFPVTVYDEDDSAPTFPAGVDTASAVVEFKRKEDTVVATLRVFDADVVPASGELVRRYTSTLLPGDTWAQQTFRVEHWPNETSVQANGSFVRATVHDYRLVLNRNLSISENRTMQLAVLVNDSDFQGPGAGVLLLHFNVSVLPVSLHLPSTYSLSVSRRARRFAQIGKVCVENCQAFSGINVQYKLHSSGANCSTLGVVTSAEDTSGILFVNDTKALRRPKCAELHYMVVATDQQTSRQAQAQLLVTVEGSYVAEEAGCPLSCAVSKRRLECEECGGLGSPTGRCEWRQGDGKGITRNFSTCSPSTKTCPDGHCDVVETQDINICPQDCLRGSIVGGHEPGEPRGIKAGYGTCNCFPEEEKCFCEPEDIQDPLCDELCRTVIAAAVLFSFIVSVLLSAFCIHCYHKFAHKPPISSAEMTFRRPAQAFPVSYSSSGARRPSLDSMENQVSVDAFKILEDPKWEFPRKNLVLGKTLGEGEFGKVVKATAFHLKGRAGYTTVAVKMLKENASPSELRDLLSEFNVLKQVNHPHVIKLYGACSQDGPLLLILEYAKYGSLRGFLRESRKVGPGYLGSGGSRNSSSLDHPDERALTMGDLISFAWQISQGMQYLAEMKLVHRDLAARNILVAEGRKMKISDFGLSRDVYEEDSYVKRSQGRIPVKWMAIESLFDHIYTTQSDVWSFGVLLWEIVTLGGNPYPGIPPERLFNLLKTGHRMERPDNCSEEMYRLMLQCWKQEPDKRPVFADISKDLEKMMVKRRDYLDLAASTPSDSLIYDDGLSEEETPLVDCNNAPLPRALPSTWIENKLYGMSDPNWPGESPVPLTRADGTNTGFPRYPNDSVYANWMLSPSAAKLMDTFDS
Parameter: % Ctrl, RET(V804L) (% Ctrl)
Use % Ctrl as the unit, but write only the number.

Cc1cc2c([nH]1)/C=C1\C(=O)Nc3ccc(cc31)-c1ccnn1CCOCCNC2=O [Ex.39] : 87
Cc1cc2c([nH]1)/C=C1\C(=O)Nc3ccc(cc31)-c1c(C)n[nH]c1CNCCN(C)C2=O [Ex. 127] : 0.55
CNC(=O)[C@H]1CN(C)C(=O)c2cc(C)[nH]c2/C=C2\C(=O)Nc3cc(Cl)c(cc32)OCCO1 [Ex. 135] : 60

Prompt: Fill blank: measured % Ctrl, RET(V804L) of the molecule Cc1cc2c([nH]1)/C=C1\C(=O)Nc3ccc(cc31)-c1ccnn1CCNCCNC2=O [Ex. 43] is ____.
Response: 100

---

Listed next: entries and their corresponding % Ctrl, FLT3(N841I).
Molecular target: kinases (Homo sapiens, UniProt P36888, N841I)
Construct: purchased Eurofins/DiscoveRx; host or cells: E. coli BL21-derived host (T7 phage display) for most kinases; HEK-293 for the rest
Experiment: KINOMEscan kinase binding assay (Eurofins/DiscoveRx), % Ctrl
Details: 1 μM; FLT3(N841I)
Protocol: Kinase binding assays were performed at Eurofins/DiscoveRx using the general KINOMEscan Protocol (Fabian, M. A. et al., “A small molecule-kinase interaction map for clinical kinase inhibitors,” Nat. Biotechnol. 2005, 23(3):329-36). For most assays, kinase-tagged T7 phage strains were prepared in an E. coli host derived from the BL21 strain. […] The kinase concentration in the eluates was measured by qPCR. […]
Write it as a number; the unit % Ctrl goes unstated.

Cc1cc2c([nH]1)/C=C1\C(=O)Nc3cnc(nc31)N(C)CCCOCCN(C)C2=O : 75
CNC(=O)[C@H]1CN(C)C(=O)c2cc(C)[nH]c2/C=C2\C(=O)Nc3cc(Cl)c(cc32)OCCO1 : 41
Cc1cc2c([nH]1)/C=C1\C(=O)Nc3ccc(cc31)O[C@@H](C)COCCN(C)C2=O : 20
Cc1cc2c([nH]1)/C=C1\C(=O)Nc3ccc(cc31)-c1ccnn1CCNCCNC2=O : 98
Cc1cc2c([nH]1)/C=C1\C(=O)Nc3ccc(cc31)-c1cnn(C)c1COCCN(C)C2=O : 0

Prompt: Given the compound `Cc1cc2c([nH]1)/C=C1\C(=O)Nc3cc(Cl)c(cc31)OCCO[C@@H](C(=O)NC1CNC1)CN(C)C2=O` , what is its reported % Ctrl, FLT3(N841I)?
Response: 19

Prompt: What do we get for `Cc1cc2c([nH]1)/C=C1\C(=O)Nc3ccc(nc31)-c1ccccc1OCCCNC2=O` ?
Response: 65

Prompt: Proceed to `Cc1cc2c([nH]1)/C=C1\C(=O)Nc3ccc(cc31)-c1ccnn1CCOCCN(C)C2=O`
Response: 0

Prompt: Can you check `Cc1cc2c([nH]1)/C=C1\C(=O)Nc3cc(Cl)c(cc31)OCCOCCN(C)C2=O` next?
Response: 0

Prompt: Thanks! And `Cc1cc2c([nH]1)/C=C1\C(=O)Nc3ccc(cc31)-c1cnn(C)c1CN(C)CCN(C)C2=O` ?
Response: 0

Prompt: And `Cc1cc2c([nH]1)/C=C1\C(=O)Nc3cc(Cl)c(cc31)OCCO[C@@H](C(=O)NC1CCNCC1)CN(C)C2=O` ?
Response: 26

Prompt: Next up: `Cc1cc2c([nH]1)/C=C1\C(=O)Nc3ccc(cc31)-c1c(noc1C)COCCN(C)C2=O`
Response: 36

Prompt: Record: `Cc1cc2c([nH]1)/C=C1\C(=O)Nc3ccc(cc31)-c1cnn(C)c1CNCCN(C)C2=O`
Response: 0
